B1: F1*; the commonest letter at each place (parent)
chain: GAGACCGCAACTGAAAAGTTGTTATCACTTGTCGTAAGACACTTTGGATGGGTTGAAGTTCTGCACGTAGAAGCAAAAGGC

Variants of: B1
procedureSummary: fraction ligated after 30 min (ligated reads / total reads); higher = more ligase activity
conditionContext: with F1*sub RNA substrate (template-directed ligation), 42 °C
Kindly state fraction ligated for each of the entries shown.
Answers are plain numbers.

In the examples that follow, each entry is paired with its recorded fraction ligated.
A48C G50T = 0.309
C26A T30A = 0.791
G50T G55T = 0.123
C26A G34T = 0.808
T32C G34C = 0.772
C28T = 0.812
T44G T45G = 0.35
G31T T32G = 0.826
G31A G38C = 0.798
T25A A37T = 0.776

I need fraction ligated for every entry listed below, if you could help.
1. C26T G50A
2. T29A A48G
3. A39T C42G
4. C28A T45C
5. A36C T44G
6. T23A T30C
7. A24T G55T
8. T35A A56G

Result:
1: 0.0828; 2: 0.803; 3: 0.817; 4: 0.499; 5: 0.827; 6: 0.793; 7: 0.18; 8: 0.799

Record T44G G47C , field fraction ligated: 0.0306
